Reference source for all entries: PubChem BioAssay (NCATS)

Tested on: CAOV3
Assay: Primary qHTS to identify gynecologic anti-cancer compounds using libraries of approved drugs and bioactive compounds (AID 1345084); note: nearly all actives have a fitted effect of over 55% in size
Conditions: Gynecologic cancer cell panel viability, ATPlite luminescence, 48 h; series mostly up to 57.5 µM
Records with an inconclusive call do not appear. The source made the active and inactive calls. Calls come from the whole dose curve; as a rule, active = well fitted cell-killing curve with a large enough effect; inconclusive = small, poorly fitted or top-dose-only effect, or effect the other way; inactive = flat fitted curve, though single readings scatter.
Answer with one of the outcomes given here: true (1) for active, false (0) for inactive

Take a look at these entries with their results.
[
  {
    "COMPOUND": "CO[C@H]1C[C@@H]2CC[C@@H](C)[C@@](O)(O2)C(=O)C(=O)N2CCCC[C@H]2C(=O)O[C@H]([C@@H](C)C[C@@H]2CC[C@@H](O)[C@H](OC)C2)CC(=O)[C@H](C)/C=C(\\C)[C@@H](O)[C@@H](OC)C(=O)[C@H](C)C[C@H](C)/C=C/C=C/C=C/1C",
    "LABEL": "false (0)"
  },
  {
    "COMPOUND": "O=C(Nc1ccc(Cl)cc1)C1CCCN(C(=O)c2cccc(-c3ccco3)c2)C1 (stereo not given)",
    "LABEL": "false (0)"
  },
  {
    "COMPOUND": "Cc1nc(C(=O)N2CCC[C@H]2Cc2nnc(-c3ccccc3)o2)c(-c2ccccc2F)s1",
    "LABEL": "false (0)"
  },
  {
    "COMPOUND": "CC(C)(C)c1ccc2c(c1)CC[C@H]2NC(=O)Nc1cccc2[nH]ncc12",
    "LABEL": "false (0)"
  }
]

Dear all, I need the recorded test outcome for COc1cc2c(cc1NS(=O)(=O)c1ccc(Br)cc1C)n(C)c(=O)n2C , thank you. true (1)

Dear all, I need the recorded test outcome for Cc1cccc(-c2[nH]ncc2-c2ccc(F)c(-c3cnn(CCO)c3)c2)n1 , thank you. false (0)

Dear all, I need the recorded test outcome for C=C1C(=O)O[C@H]2C3=C(C)CCC[C@]3(C)C(=O)C[C@@H]12 , thank you. true (1)

Dear all, I need the recorded test outcome for Cn1c(=O)c(F)c(Nc2ccc(I)cc2F)c2c(=O)n(CC(O)CO)cnc21 (stereo not given) , thank you. false (0)
